Reference source for all entries: patent US9944647B2

This document collects pIC50 values reported for LSD-1 enzyme (Homo sapiens (Human), UniProt O60341).
pIC50: −log10 of the molar value.
outcome measure: pIC50

>>> result("CN1CCC[C@@H](COc2nc(-c3ccc(C#N)cc3)c(-c3ccc4c(c3)CC(=O)N4C)c3nccn23)C1")
"6.30 to 7.30"
>>> result("CN1CCC[C@@H](COc2nc(-c3ccc(C#N)cc3)c(-c3cnc4c(cnn4C)c3)c3nccn23)C1")
"≥ 7.30"
>>> result("CN(C)C1CCN(c2nc(-c3ccc(C#N)cc3)c(-c3ccc4c(c3F)n(C)c(=O)n4C)c3nccn23)CC1")
"≥ 7.30"
>>> result("Cc1ccc(-c2c(-c3ccc(C#N)cc3)nc(OC[C@@H]3CCCN(C)C3)n3ccnc23)cc1CO")
"≥ 7.30"
>>> result("CN1CCC2(CCN(c3nc(-c4ccc(C#N)cc4)c(-c4cnc5c(cnn5C)c4)c4nccn34)C2)C1 (centres unmarked)")
"≥ 7.30"
>>> result("CN1CC[C@@H](COc2nc(-c3ccc(C#N)cc3)c(-c3ccc4c(cnn4C)c3)c3nccn23)C1")
"≥ 7.30"
>>> result("CN1CCC[C@@H](COc2nc(-c3ccc(C#N)cc3)c(-c3ccc4c(cnn4C)c3)c3nccn23)C1")
"≥ 7.30"
>>> result("CN1CCC[C@@H](COc2nc(-c3ccc(C#N)cc3)c(-c3ccc(CO)cc3)c3nccn23)C1")
"≥ 7.30"
>>> result("CN1CC[C@@H](COc2nc(-c3ccc(C#N)cc3)c(-c3ccc(N4CCCC4)nc3)c3nccn23)C1")
"6.30 to 7.30"
>>> result("CN(C)C1CCN(c2nc(-c3ccc(C#N)cc3)c(-c3cnc4c(cnn4C)c3)c3nccn23)CC1")
"≥ 7.30"
>>> result("CN1CCC[C@@H](COc2nc(-c3ccc(C#N)cc3)c(-c3cnc4c(c3)OCCN4C)c3nccn23)C1")
"≥ 7.30"
>>> result("CCOc1ccc(-c2c(-c3ccc(C#N)cc3)nc(N3CCC(N(C)C)CC3)n3ccnc23)cn1")
"≥ 7.30"
>>> result("CN(C)C1CCN(c2nc(-c3ccc(C#N)cc3)c(-c3cc(F)c(CO)c(F)c3)c3nccn23)CC1")
"≥ 7.30"
>>> result("Cc1ccc(-c2c(-c3ccc(C#N)cc3)nc(OC[C@@H]3CCCN(C)C3)n3ccnc23)c(CO)c1")
"≥ 7.30"
>>> result("Cc1cc(-c2c(-c3ccc(C#N)cc3)nc(N3CCC(N(C)C)CC3)n3ccnc23)cc(F)c1CO")
"≥ 7.30"
>>> result("COCc1ccc(-c2c(-c3ccc(C#N)cc3)nc(OC[C@@H]3CCCN(C)C3)n3ccnc23)cc1")
"≥ 7.30"
>>> result("CCN1CCC[C@@H](COc2nc(-c3ccc(C#N)cc3)c(-c3ccc(C)cc3CO)c3nccn23)C1")
"6.30 to 7.30"
>>> result("Cc1ncc(-c2c(-c3ccc(C#N)cc3)nc(N3CCC(N(C)C)CC3)n3ccnc23)cc1C(F)F")
"6.30 to 7.30"
>>> result("CN(C)C1CCN(c2nc(-c3ccc(C#N)cc3)c(-c3cc4oc(=O)n(C)c4cc3F)c3nccn23)CC1")
"≥ 7.30"
>>> result("CN(C)C1CCN(c2nc(-c3ccc(C#N)cc3)c(-c3cc4c(cc3F)n(C)c(=O)n4C)c3nccn23)CC1")
"≥ 7.30"
>>> result("CN1CCN(Cc2ccc(-c3c(-c4ccc(C#N)cc4)nc(OC[C@@H]4CCCN(C)C4)n4ccnc34)cc2)CC1")
"≥ 7.30"
>>> result("CN1CCC[C@@H](COc2nc(-c3ccc(C#N)cc3)c(-c3ccc4c(c3)OCC(=O)N4C)c3nccn23)C1")
"6.30 to 7.30"
>>> result("CN1CCC[C@@H](COc2nc(-c3ccc(C#N)cc3)c(-c3ccc4c(c3)n(C)c(=O)n4C)c3nccn23)C1")
"6.30 to 7.30"
>>> result("Cn1c(=O)oc2cc(-c3c(-c4ccc(C#N)cc4)nc(OC[C@@H]4CCCN(CC(C)(C)O)C4)n4ccnc34)ccc21")
"6.30 to 7.30"
>>> result("CN1CC[C@@H](COc2nc(-c3ccc(C#N)cc3)c(-c3ccc4c(c3)oc(=O)n4C)c3nccn23)C1")
"6.30 to 7.30"
>>> result("CN1CCC[C@@H](COc2nc(-c3ccc(C#N)cc3)c(-c3ccc4c(c3)nc(C(F)F)n4C)c3nccn23)C1")
"≥ 7.30"
>>> result("COc1ncc(-c2c(-c3ccc(C#N)cc3)nc(OC[C@@H]3CCCN(C)C3)n3ccnc23)cc1C")
"≥ 7.30"
>>> result("CN1CCC[C@@H](COc2nc(-c3ccc(C#N)cc3)c(-c3ccc(CN(C)C(=O)N(C)C)c(F)c3)c3nccn23)C1")
"≥ 7.30"
>>> result("Cc1ccc(-c2c(-c3ccc(C#N)cc3)nc(OC[C@@H]3CCCN(C)C3)n3ccnc23)cn1")
"6.30 to 7.30"
